Assignment: determine reported IC50 for the given molecules.
# target-or-system: Phosphodiesterase 1 (Rattus norvegicus, UniProt Q63421+Q9EPR9+Q01066)
# assay-name: Inhibitory activity against rat heart Phosphodiesterase 1(PDE1)
# Format: protein assay

Would you kindly share the measured IC50 for `COC(=O)c1c(-c2cc(OC)c(OC)c(OC)c2)c2cc(OC)c(OC)cc2c(=O)n1N1CCCCC1` ? > 10 µM

Would you kindly share the measured IC50 for `COC(=O)c1c(-c2cc(OC)c(OC)c(OC)c2)c2ccc(OCc3cccnc3)cc2c(=O)n1-c1ccc(N)cc1.Cl.Cl` ? 3.9 µM

Would you kindly share the measured IC50 for `COc1cc(-c2c(C(=O)N(C)C)n(-c3ccc(N)cc3)c(=O)c3cc(OCc4ccccn4)ccc23)cc(OC)c1OC.Cl.Cl` ? > 10 µM

Would you kindly share the measured IC50 for `CCOc1cc2c(-c3cc(OC)c(OC)c(OC)c3)c(C(=O)OC)n(-c3ccc(N)cc3)c(=O)c2cc1OCC.Cl` ? > 10 µM
